Biological target: recombinant human SAE enzyme (Homo sapiens, UniProt Q9UBT2)
Sequence (Q9UBT2 1-640): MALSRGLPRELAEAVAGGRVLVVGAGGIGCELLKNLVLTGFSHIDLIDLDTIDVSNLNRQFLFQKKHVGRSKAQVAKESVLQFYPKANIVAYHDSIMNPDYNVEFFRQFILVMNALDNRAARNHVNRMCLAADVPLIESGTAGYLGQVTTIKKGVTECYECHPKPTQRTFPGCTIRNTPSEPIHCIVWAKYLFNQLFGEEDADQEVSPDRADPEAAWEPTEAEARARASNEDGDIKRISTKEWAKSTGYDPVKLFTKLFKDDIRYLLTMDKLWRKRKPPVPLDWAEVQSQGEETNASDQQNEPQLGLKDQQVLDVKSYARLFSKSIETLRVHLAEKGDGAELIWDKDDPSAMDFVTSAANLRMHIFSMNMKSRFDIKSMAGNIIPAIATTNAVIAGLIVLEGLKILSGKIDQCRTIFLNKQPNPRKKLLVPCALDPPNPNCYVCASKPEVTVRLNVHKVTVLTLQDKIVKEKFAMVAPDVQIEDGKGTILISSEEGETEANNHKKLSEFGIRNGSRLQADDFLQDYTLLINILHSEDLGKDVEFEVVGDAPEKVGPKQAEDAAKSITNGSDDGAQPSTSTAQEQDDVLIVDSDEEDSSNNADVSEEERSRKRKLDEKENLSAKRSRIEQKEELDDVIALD
Sequence (Q9UBE0 1-346 partner): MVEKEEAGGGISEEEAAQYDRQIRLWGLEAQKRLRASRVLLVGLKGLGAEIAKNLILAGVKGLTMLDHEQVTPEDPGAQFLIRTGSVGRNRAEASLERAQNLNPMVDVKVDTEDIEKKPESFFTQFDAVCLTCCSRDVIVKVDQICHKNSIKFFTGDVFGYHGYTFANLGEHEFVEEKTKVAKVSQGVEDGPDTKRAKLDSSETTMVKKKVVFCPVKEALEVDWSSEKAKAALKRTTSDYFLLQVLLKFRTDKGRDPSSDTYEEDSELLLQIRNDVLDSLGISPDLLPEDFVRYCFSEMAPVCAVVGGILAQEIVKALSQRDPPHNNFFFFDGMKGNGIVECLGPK
Experiment: SAE HTRF Enzyme Assay
Format: biochemical
Conditions: compound concentration 0.111 μM; read-out: Percent Inhibition
Reported Property: inhibition at 0.111 µM (%)
Give bare numbers, in %.

NS(=O)(=O)OC[C@H]1C[C@@H](Nc2ccncc2C(=O)c2ccn(Cc3cccc(OC(F)(F)F)c3)c2)[C@@H](F)[C@@H]1O [Compound I-132]: 78
C=CC(=O)Nc1cccc(Cn2ccc(C(=O)c3cncnc3N[C@@H]3C[C@H](COS(N)(=O)=O)[C@@H](O)[C@H]3O)n2)c1 [Compound I-313]: 95
NS(=O)(=O)OC[C@H]1C[C@@H](Nc2ncncc2C(=O)c2ccn(Cc3ccccc3)c2)C[C@@H]1O [Compound I-300]: 97
C/C=C/Cn1ccc(C(=O)c2cncnc2N[C@@H]2C[C@H](COS(N)(=O)=O)[C@@H](O)C2)n1 [Compound I-107]: 70
NS(=O)(=O)CC[C@H]1C[C@@H](Nc2ncncc2C(=O)c2ccn(Cc3cccc(Br)c3)n2)C[C@@H]1O [Compound I-38]: 51
C=C[S+]([O-])c1cccc(Cn2ccc(C(=O)c3cncnc3N[C@@H]3C[C@H](COS(N)(=O)=O)[C@@H](O)[C@H]3O)n2)c1 (mixture of isomers) [Compound I-74]: 92

Note: attention shifts to another entry.
inhibition at 0.111 µM of NS(=O)(=O)OC[C@H]1C[C@@H](Nc2ncncc2C(=O)c2ccn(Cc3ccccc3)n2)C[C@@H]1O [Compound I-158] on recombinant human SAE enzyme (Homo sapiens, UniProt Q9UBT2)?
95
